The measured values listed here are drawn from PubChem BioAssay AID2284365.

Experiment: CCTE_Mundy_HCI_iCellGABA_NOG_NeuronCount: CCTE's Neurite Outgrowth Assay in iCellGABA cells for Neuron Count, Mundy Lab
Activity calls are given as the source filed them. The calls were made as follows: active = hit-call score of the fitted dose curve at least 0.9, where 1 is the maximum; inactive = score below 0.9.
Choose one outcome from this list and give only that: True (active), False (inactive)

Outcome logged for `CCOP(=O)(OCC)Oc1nc(Cl)c(Cl)cc1Cl` in this assay:
False

Test call, this compound: COP(=O)(OC)OC(Br)C(Cl)(Cl)Br (centres undefined)
True

Recorded test call requested for `CCCCSP(=O)(SCCCC)SCCCC`
True

How was `CCOP(=S)(OCC)Oc1nc(Cl)c(Cl)cc1Cl` classified in this test?
True

What did this assay record as the result for CCOC(=O)CC(SP(=O)(OC)OC)C(=O)OCC (centres undefined) ?
False

Returns: the outcome recorded for `COP(=O)(OC)OC=C(Cl)Cl` in this assay.
False

Per the assay record, what outcome was assigned to `COP(=O)(OC)O/C(=C\Cl)c1cc(Cl)c(Cl)cc1Cl` ?
False

What was the test verdict on `CNC(=O)CSP(=S)(OC)OC` ?
False

I'd appreciate the recorded outcome for `CCOP(=S)(OCC)SCSC(C)(C)C` from this test.
True
